tested on: PfSIP2 AP2 domain 1 (GST-tagged); assay: gcPBM binding intensity (ln(normalized median fluorescence intensity)); higher = stronger DNA binding
In all, about 25,000 sequences were measured (“ln(normalized median fluorescence intensity)”: median about 7.1, highest 2% from about 10 on). The sample as a whole holds a higher share of the highest values than the screen did.
experimental_readout: gcPBM binding intensity (ln)

Lab note: TTTATTTTTTACCAAGTGCAATATATTATAATAATA gave gcPBM binding intensity (ln) of 7.77

Lab note: GTGTAATATGAAATGTGTACACACGCACACACAAAA [XGTACX_site6180] gave gcPBM binding intensity (ln) of 7.6

Lab note: CGATTTTTTAAGTTTGTGCACTTAAAAACTATAACA gave gcPBM binding intensity (ln) of 9.78

Lab note: TATATATAAATATATGTGCACTTTTTATATTTATAT gave gcPBM binding intensity (ln) of 10.6

Lab note: TGTATTAAAAATTTGGTGCAACTTTTACATAATAAT gave gcPBM binding intensity (ln) of 10.5

Lab note: AAATATTTTTAGAGTGCATGTAATAAAAATATAATG [TGCATGCA_site19] gave gcPBM binding intensity (ln) of 10.1

Lab note: CTTATTGATTTAAAAAGTACATATATGTATATACAC [XGTACX_site4072] gave gcPBM binding intensity (ln) of 7.05

Lab note: GTATGAAAAAAAATATGTACACATATATATTTGGTA [XGTACX_site6309] gave gcPBM binding intensity (ln) of 7.07

Lab note: CTTTTAAATTATTTTTGTACATAATTATATATATAT [XGTACX_site4128] gave gcPBM binding intensity (ln) of 8.44

Lab note: TCTTTGTATATATGTTCATTTGTAATATATATTCAT [TGCATGCA_negctrl_site467] gave gcPBM binding intensity (ln) of 7.18

Lab note: TAATATGAAATGTGTACACACGCACCCACAAAAAAA [CACACA_site8949] gave gcPBM binding intensity (ln) of 10.7

Lab note: ATAGTTTAATTTATATGTACATATAATATTGATTTG [XGTACX_site7520] gave gcPBM binding intensity (ln) of 7.29

Lab note: ATTATATATAATATAGTGCATGTAAAAAATAAAACA gave gcPBM binding intensity (ln) of 10

Lab note: ATTCATTTACCAATGGTGCAATATATTTTTATAATG gave gcPBM binding intensity (ln) of 10.3

Lab note: TTTTTTTTTTTTTCAAGTACATATATATATATATAA [XGTACX_site2098] gave gcPBM binding intensity (ln) of 7.58

Lab note: TACTTATTTGATTGGGTGCATATATATAGTATGTAT [GTGCAC_site9845] gave gcPBM binding intensity (ln) of 10.6

Lab note: AACTATTTTATTATATGTACTTACGAATTTATAAAA [XGTACX_site5262] gave gcPBM binding intensity (ln) of 7.04

Lab note: TATTCAGGTCCAATGGTGCAATATATTTTTGTAATA [GTGCAC_site9607] gave gcPBM binding intensity (ln) of 10.5

Lab note: TTTTTATTACATAATTAAAAAAAATAATAAAATAAA [XGTACX_negctrl_site249] gave gcPBM binding intensity (ln) of 6.8

Lab note: TATTTATAAATATGTGTGCACAATTTATTTTATAAT gave gcPBM binding intensity (ln) of 9.67

Lab note: TTTTACGTGAGTAATACACACATATAAGTTTATATA [CACACA_site4120] gave gcPBM binding intensity (ln) of 6.74

Every entry's value here was drawn from the supplement of paper PMC11417369.
